Recorded values, source the supplement of paper PMC11208160.

# measurement-notes: recombinant barcode read abundance after kanamycin selection (control-corrected) (log10(CPM+1)); higher = more efficient recombination; sequences stand for … in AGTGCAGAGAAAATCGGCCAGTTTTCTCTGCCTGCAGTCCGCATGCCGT…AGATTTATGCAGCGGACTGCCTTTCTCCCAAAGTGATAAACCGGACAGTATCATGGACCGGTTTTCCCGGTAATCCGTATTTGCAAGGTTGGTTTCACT; site = the 11-nt target;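 note: IS621 recombinase and bridge RNA in Escherichia coli cells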
result-type: recombinant barcode read abundance (log10)

Per the records, this sequence ( CTCAATACTTGGGTTCTAACCTGTTGCGA (site CTCAATACTTC) ) has recombinant barcode read abundance (log10) equal to 1.15

Per the records, this sequence ( CCGACTCCTTGGGTTCTAACCTGTTGCCT (site CCGAGTCCTAG) ) has recombinant barcode read abundance (log10) equal to 0

Per the records, this sequence ( GTCAAAGCTTGGGTTCTAACCTGTTGCCA (site GTCACAGCTAG) ) has recombinant barcode read abundance (log10) equal to 0.407

Per the records, this sequence ( ACTTCAACTTGGGTTCTAACCTGTTGCCT (site ACCTCAACTAG) ) has recombinant barcode read abundance (log10) equal to 0.026

Per the records, this sequence ( CTTTAATCTTGGGTTCTAACCTGTTGCCT (site CTTTAATCTAG) ) has recombinant barcode read abundance (log10) equal to 0.165

---

Could you please report measured recombinant barcode read abundance (log10) for the items listed next?
# measurement-notes: recombinant barcode read abundance after kanamycin selection (control-corrected) (log10(CPM+1)); higher = more efficient recombination; sequences stand for … in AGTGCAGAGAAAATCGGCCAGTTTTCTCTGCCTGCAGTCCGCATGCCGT…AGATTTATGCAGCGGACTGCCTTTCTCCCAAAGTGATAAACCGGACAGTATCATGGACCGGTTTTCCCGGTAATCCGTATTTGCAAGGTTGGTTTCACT; site = the 11-nt target
Lab note: record the figure alone, no unit after it.

Per the records, this sequence ( CTATGTGCTTGGGTTCTAACCTGTTGCCT (site CTATGTGCTAG) ) has recombinant barcode read abundance (log10) equal to 1.62

Per the records, this sequence ( TCTATGTCTTGGGTTCTAACCTGTTGCCT (site TCTATGACTAG) ) has recombinant barcode read abundance (log10) equal to 0.182

Per the records, this sequence ( TGGAGCCCTTGGGTTCTAACCTGTTGCAG (site TGGAGCCCTGT) ) has recombinant barcode read abundance (log10) equal to 0.336

Per the records, this sequence ( AAGGGCGCTTGGGTTCTAACCTGTTGCCT (site AAGGCCGCTAG) ) has recombinant barcode read abundance (log10) equal to 0.238

Per the records, this sequence ( AAAACTACTTGGGTTCTAACCTGTTGCCA (site AAAACTACTTG) ) has recombinant barcode read abundance (log10) equal to 0.2

Per the records, this sequence ( AAGTATTCTTGGGTTCTAACCTGTTGCGT (site TAGTCTTCTAC) ) has recombinant barcode read abundance (log10) equal to 0.022

Per the records, this sequence ( AGTGAGCCTTGGGTTCTAACCTGTTGCCT (site AGTGAGCCTAG) ) has recombinant barcode read abundance (log10) equal to 1.26

Per the records, this sequence ( GACGCGGCTTGGGTTCTAACCTGTTGCCT (site TTGCGAACTCT) ) has recombinant barcode read abundance (log10) equal to 0.059

Per the records, this sequence ( GTAAGTACTTGGGTTCTAACCTGTTGCTT (site GTAAGGACTAA) ) has recombinant barcode read abundance (log10) equal to 0.159

Per the records, this sequence ( GCCGCTCCTTGGGTTCTAACCTGTTGCCT (site GCCGCTCCTAG) ) has recombinant barcode read abundance (log10) equal to 0.163

---

# measurement-notes: recombinant barcode read abundance after kanamycin selection (control-corrected) (log10(CPM+1)); higher = more efficient recombination; sequences stand for … in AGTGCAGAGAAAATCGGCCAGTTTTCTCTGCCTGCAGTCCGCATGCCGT…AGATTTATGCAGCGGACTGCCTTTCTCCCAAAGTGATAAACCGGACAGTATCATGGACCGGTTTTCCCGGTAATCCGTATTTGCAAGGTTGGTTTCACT; site = the 11-nt target
Threshold check on recombinant barcode read abundance (log10): at or above 0.4 gives yes, strictly below gives no.

Prompt: Could you verify whether the entry GCGGAATCTTGGGTTCTAACCTGTTGCCT (site GCGGAATCTAG) shows recombinant barcode read abundance (log10) of no less than 0.4?
Completion: yes

Prompt: Could you verify whether the entry TGCTGTACTTGGGTTCTAACCTGTTGCCT (site TGCTGTACTAG) shows recombinant barcode read abundance (log10) of no less than 0.4?
Completion: no

Prompt: Could you verify whether the entry GCTGGTCCTTGGGTTCTAACCTGTTGCCT (site GCTGGTCCTAG) shows recombinant barcode read abundance (log10) of no less than 0.4?
Completion: yes

Prompt: Could you verify whether the entry GCCCATCCTTGGGTTCTAACCTGTTGCTA (site GCCCATCCTTA) shows recombinant barcode read abundance (log10) of no less than 0.4?
Completion: yes

Prompt: Could you verify whether the entry ATGAGAGCTTGGGTTCTAACCTGTTGCCT (site ATAAGACCTAG) shows recombinant barcode read abundance (log10) of no less than 0.4?
Completion: no

Prompt: Could you verify whether the entry CCTCAGTCTTGGGTTCTAACCTGTTGCGA (site CCTCAGTCTTC) shows recombinant barcode read abundance (log10) of no less than 0.4?
Completion: yes

Prompt: Could you verify whether the entry TCGTCTACTTGGGTTCTAACCTGTTGCTC (site TCGTCTACTGA) shows recombinant barcode read abundance (log10) of no less than 0.4?
Completion: no

Prompt: Could you verify whether the entry TCCAGTACTTGGGTTCTAACCTGTTGCAT (site TCCAGTACTAT) shows recombinant barcode read abundance (log10) of no less than 0.4?
Completion: no

Prompt: Could you verify whether the entry TGAGGTGCTTGGGTTCTAACCTGTTGCCT (site TGAGGTGCTAG) shows recombinant barcode read abundance (log10) of no less than 0.4?
Completion: yes

Prompt: Could you verify whether the entry TACAGTACTTGGGTTCTAACCTGTTGCCT (site TACAGTACTAG) shows recombinant barcode read abundance (log10) of no less than 0.4?
Completion: no

---

# measurement-notes: recombinant barcode read abundance after kanamycin selection (control-corrected) (log10(CPM+1)); higher = more efficient recombination; sequences stand for … in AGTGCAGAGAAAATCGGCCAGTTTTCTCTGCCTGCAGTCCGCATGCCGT…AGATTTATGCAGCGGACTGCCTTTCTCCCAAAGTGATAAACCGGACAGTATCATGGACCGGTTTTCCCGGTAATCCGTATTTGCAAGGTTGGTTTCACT; site = the 11-nt target
result-type: recombinant barcode read abundance (log10)

Per the records, this sequence ( GCCAACCCTTGGGTTCTAACCTGTTGCTT (site GCCAACCCTAT) ) has recombinant barcode read abundance (log10) equal to 0.39

Per the records, this sequence ( AGGGGCTCTTGGGTTCTAACCTGTTGCTG (site ACGGGCTCTAA) ) has recombinant barcode read abundance (log10) equal to 0.0932

Per the records, this sequence ( CTAACCGCTTGGGTTCTAACCTGTTGCCT (site CGAACCGCTAG) ) has recombinant barcode read abundance (log10) equal to 0.0568

Per the records, this sequence ( CTCAGACCTTGGGTTCTAACCTGTTGCTG (site TCACACACTAG) ) has recombinant barcode read abundance (log10) equal to 0.463

Per the records, this sequence ( TAGTCGTCTTGGGTTCTAACCTGTTGCTT (site TAGTCGTCTAA) ) has recombinant barcode read abundance (log10) equal to 0.456

Per the records, this sequence ( ACTCCAGCTTGGGTTCTAACCTGTTGCCT (site TAGTTTACTCT) ) has recombinant barcode read abundance (log10) equal to 0.0793

Per the records, this sequence ( CTACTTCCTTGGGTTCTAACCTGTTGCGT (site CTACCTCCTAC) ) has recombinant barcode read abundance (log10) equal to 0.215

Per the records, this sequence ( ACTTTGTCTTGGGTTCTAACCTGTTGCCT (site ACCTTGTCTAG) ) has recombinant barcode read abundance (log10) equal to 0.085

Per the records, this sequence ( CTGGGGTCTTGGGTTCTAACCTGTTGCCT (site CTGGGGTCTAG) ) has recombinant barcode read abundance (log10) equal to 2.45

Per the records, this sequence ( AGCGCTTCTTGGGTTCTAACCTGTTGCCT (site AGCGCTTCTAG) ) has recombinant barcode read abundance (log10) equal to 0.454

Per the records, this sequence ( ACTTCAACTTGGGTTCTAACCTGTTGCCT (site ACGTCAACTAG) ) has recombinant barcode read abundance (log10) equal to 0.161

Per the records, this sequence ( GAGCTACCTTGGGTTCTAACCTGTTGCCA (site GAGCTACCTTG) ) has recombinant barcode read abundance (log10) equal to 1.11

Per the records, this sequence ( TACTAACCTTGGGTTCTAACCTGTTGCCT (site TACTAACCTAG) ) has recombinant barcode read abundance (log10) equal to 0.752

Per the records, this sequence ( CAAGTGACTTGGGTTCTAACCTGTTGCCT (site TCCTATGCTTA) ) has recombinant barcode read abundance (log10) equal to 0.129

Per the records, this sequence ( CCATGGACTTGGGTTCTAACCTGTTGCCT (site CCAGGGACTAG) ) has recombinant barcode read abundance (log10) equal to 0.0382

Per the records, this sequence ( ACAAGCCCTTGGGTTCTAACCTGTTGCCT (site ACAAGCCCTAG) ) has recombinant barcode read abundance (log10) equal to 0.643

Per the records, this sequence ( GTTAGACCTTGGGTTCTAACCTGTTGCCT (site GTTAGACCTAG) ) has recombinant barcode read abundance (log10) equal to 0.949

Per the records, this sequence ( ATGAGGACTTGGGTTCTAACCTGTTGCCT (site TTGAGGACTAG) ) has recombinant barcode read abundance (log10) equal to 0.246

Per the records, this sequence ( CAAGATGCTTGGGTTCTAACCTGTTGCCT (site CACGATGCTAG) ) has recombinant barcode read abundance (log10) equal to 0.304

Per the records, this sequence ( GACCCACCTTGGGTTCTAACCTGTTGCCT (site TACCCACCTAG) ) has recombinant barcode read abundance (log10) equal to 1.4

Per the records, this sequence ( CACTTCCCTTGGGTTCTAACCTGTTGCCT (site CACTTCCCTAA) ) has recombinant barcode read abundance (log10) equal to 0.191

Per the records, this sequence ( TATTCTACTTGGGTTCTAACCTGTTGCGG (site TATTCTACTGC) ) has recombinant barcode read abundance (log10) equal to 0.101

Per the records, this sequence ( CTTCGTCCTTGGGTTCTAACCTGTTGCAT (site CTTCGTCCTAT) ) has recombinant barcode read abundance (log10) equal to 0.658

Per the records, this sequence ( TCGTACCCTTGGGTTCTAACCTGTTGCAA (site TCGTACCCTTT) ) has recombinant barcode read abundance (log10) equal to 0.143

Per the records, this sequence ( TCCGCTTCTTGGGTTCTAACCTGTTGCCT (site TCCGCTGCTAG) ) has recombinant barcode read abundance (log10) equal to 0.0858

Per the records, this sequence ( AGGCTGACTTGGGTTCTAACCTGTTGCCT (site AGGCTGGCTAG) ) has recombinant barcode read abundance (log10) equal to 0.0298

Per the records, this sequence ( AGTGAAGCTTGGGTTCTAACCTGTTGCAC (site CACTTCCCTTC) ) has recombinant barcode read abundance (log10) equal to 0.298

Per the records, this sequence ( ACTTGACCTTGGGTTCTAACCTGTTGCGG (site AGTTAACCTCC) ) has recombinant barcode read abundance (log10) equal to 0

Per the records, this sequence ( TTCTACCCTTGGGTTCTAACCTGTTGCCT (site TTCTACCCTAG) ) has recombinant barcode read abundance (log10) equal to 0.449

Per the records, this sequence ( GTGTGAGCTTGGGTTCTAACCTGTTGCCG (site GTACGAGCTCG) ) has recombinant barcode read abundance (log10) equal to 0.269

Per the records, this sequence ( CCGATTCCTTGGGTTCTAACCTGTTGCCT (site CCGAATCCTAG) ) has recombinant barcode read abundance (log10) equal to 0.153

Per the records, this sequence ( GTTCCTACTTGGGTTCTAACCTGTTGCCT (site GATCCTACTAG) ) has recombinant barcode read abundance (log10) equal to 0.215

Per the records, this sequence ( GACTTACCTTGGGTTCTAACCTGTTGCAT (site GACTTCCCTAT) ) has recombinant barcode read abundance (log10) equal to 0.216

Per the records, this sequence ( CAGCGAGCTTGGGTTCTAACCTGTTGCCG (site CAGCGAGCTCG) ) has recombinant barcode read abundance (log10) equal to 0.737

Per the records, this sequence ( GACTTCCCTTGGGTTCTAACCTGTTGCAT (site GACTTTCCTAT) ) has recombinant barcode read abundance (log10) equal to 0.0857

Per the records, this sequence ( TTCATGTCTTGGGTTCTAACCTGTTGCTT (site CTCATGTCTAA) ) has recombinant barcode read abundance (log10) equal to 0.138

Per the records, this sequence ( AACCACTCTTGGGTTCTAACCTGTTGCCT (site AACCACTCTAG) ) has recombinant barcode read abundance (log10) equal to 2.42

Per the records, this sequence ( GTTCCTACTTGGGTTCTAACCTGTTGCCT (site GCTCCTACTAG) ) has recombinant barcode read abundance (log10) equal to 0.00954

Per the records, this sequence ( AGCCCTCCTTGGGTTCTAACCTGTTGCTT (site AGCCCTCCTAA) ) has recombinant barcode read abundance (log10) equal to 0.518

Per the records, this sequence ( GGACACTCTTGGGTTCTAACCTGTTGCCT (site GGACACTCTTA) ) has recombinant barcode read abundance (log10) equal to 1.09

Per the records, this sequence ( CTCGGGCCTTGGGTTCTAACCTGTTGCCT (site ATCGGGCCTAG) ) has recombinant barcode read abundance (log10) equal to 0.0932

Per the records, this sequence ( CGTTCCACTTGGGTTCTAACCTGTTGCCT (site CGTTCGACTAG) ) has recombinant barcode read abundance (log10) equal to 0.279
